Please go through the items and note down their IC50.
TGT: human Yes1 enzyme (Homo sapiens, UniProt P07947)
Construct: made in house
Sequence (P07947 whole entry): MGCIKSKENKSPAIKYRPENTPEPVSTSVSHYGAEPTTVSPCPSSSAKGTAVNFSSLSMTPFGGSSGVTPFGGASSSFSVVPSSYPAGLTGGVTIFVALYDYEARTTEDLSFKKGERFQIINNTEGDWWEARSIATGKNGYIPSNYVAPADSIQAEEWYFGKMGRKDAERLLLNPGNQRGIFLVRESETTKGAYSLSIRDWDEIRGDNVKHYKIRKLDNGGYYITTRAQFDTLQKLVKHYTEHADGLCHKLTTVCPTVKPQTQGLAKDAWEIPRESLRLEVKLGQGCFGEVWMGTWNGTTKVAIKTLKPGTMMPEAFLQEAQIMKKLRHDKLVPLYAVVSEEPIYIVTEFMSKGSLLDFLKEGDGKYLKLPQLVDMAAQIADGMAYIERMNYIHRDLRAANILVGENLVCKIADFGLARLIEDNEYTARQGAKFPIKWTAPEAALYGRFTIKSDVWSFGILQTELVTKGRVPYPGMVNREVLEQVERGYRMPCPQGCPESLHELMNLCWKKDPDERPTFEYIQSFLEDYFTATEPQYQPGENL
ASSAY_SUMMARY: Yes1 enzyme inhibitory activity (time-resolved fluorometry, biotinylated peptide phosphorylation)
Assay type: biochemical
CONDITION_PARAMETERS: biotinylated peptide phosphorylation, read-out: YES_IC50
Numbers only, in nM.

MOLECULE	TGT	UNIT_OF_MEASURE	IC50
Cc1ccccc1Oc1cc(C)c(-n2ncc(C(=O)c3cc4cc(F)c(NS(=O)(=O)C5CC5)cc4[nH]3)c2N)cn1 [Example 4-2-047]	human Yes1 enzyme (Homo sapiens, UniProt P07947)	nM	4.5
Cc1cc2cc(C(=O)c3cnn(-c4cnc(Oc5c(F)cccc5F)cc4C)c3N)[nH]c2cc1N1C(=O)NC2(COC2)C1=O [Example 5-1-404]	human Yes1 enzyme (Homo sapiens, UniProt P07947)	nM	1.7
Cc1cc(Oc2ccccc2F)ncc1-n1ncc(C(=O)c2cc3cc(OC(F)F)c(NC4CN(S(C)(=O)=O)C4)cc3[nH]2)c1N [Example 4-23-025]	human Yes1 enzyme (Homo sapiens, UniProt P07947)	nM	1.8
Cc1cc2cc(C(=O)c3cnn(-c4cnc(Oc5cccc(Cl)c5)cc4C)c3N)[nH]c2cc1NS(C)(=O)=O [Example 4-2-066]	human Yes1 enzyme (Homo sapiens, UniProt P07947)	nM	9.4
COc1cccc(S(=O)(=O)Nc2cc3[nH]c(C(=O)c4cnn(-c5ccc(Oc6ccccc6F)cc5C)c4N)cc3cc2OCC(F)F)c1 [Example 5-1-414]	human Yes1 enzyme (Homo sapiens, UniProt P07947)	nM	5.3
COc1cc2cc(C(=O)c3cnn(-c4ccc(Oc5ccccc5F)cc4C)c3N)[nH]c2cc1NS(=O)(=O)CC(=O)NC(C)C [Example 4-10-011]	human Yes1 enzyme (Homo sapiens, UniProt P07947)	nM	0.64
COc1cncc(S(=O)(=O)Nc2cc3[nH]c(C(=O)c4cnn(-c5cnc(Oc6ccccc6F)cc5C)c4N)cc3cc2C)c1 [Example 5-1-484]	human Yes1 enzyme (Homo sapiens, UniProt P07947)	nM	6.9
Cc1cc(Oc2ccccc2F)ncc1-n1ncc(C(=O)c2cc3cc(F)c(NS(=O)(=O)N4CCOCC4)cc3[nH]2)c1N [Example 4-5-001]	human Yes1 enzyme (Homo sapiens, UniProt P07947)	nM	1.2

Provide IC50 values for the following items, in order.
1. Cc1cc(Oc2ccccc2F)ncc1-n1ncc(C(=O)c2cc3cc(OCC(F)F)c(C4CCN(S(=O)(=O)C5CC5)CC4)cc3[nH]2)c1N [Example 4-17-022]
2. Cc1cc(Oc2c(F)cccc2F)ncc1-n1ncc(C(=O)c2cc3cc(OCC(F)F)c(NC4CN(S(C)(=O)=O)C4)cc3[nH]2)c1N [Example 4-23-022]
3. COc1cc2cc(C(=O)c3cnn(-c4ccc(Oc5cccc(F)c5F)cc4C)c3N)[nH]c2cc1NS(C)(=O)=O [Example 4-1-005]
4. Cc1cc2cc(C(=O)c3cnn(-c4c(C)cc(Oc5ccccc5F)cc4F)c3N)[nH]c2cc1NS(C)(=O)=O [Example 4-2-055]
5. Cc1cc(Oc2ccccc2F)ccc1-n1ncc(C(=O)c2cc3cc(F)c(C4CCN(C(C)C)CC4)cc3[nH]2)c1N [Example 4-2-010]

Response:
1.3
1.3
1
3
1.2

Hey, just so you know, these numbers are from patent US10479780B2.
